Tested on: NF-κB
Experiment: NF-κB assay: THP1-NF-κB-LUC cells, LPS-stimulated secreted luciferase
Format: cell-based
Settings: THP1-NF-κB-LUC cells; compounds 2 hours before LPS (10 ng/mL) for 18 hours; secreted luciferase; read-out: IC50 (NF-κB assay)
ENDPOINT_NAME: IC50

Examples with answers:
MOLECULE: Cc1ccc(S(=O)(=O)c2ccc3c(=O)[nH]ccc3c2)cc1
TARGET_SYSTEM: NF-κB
IC50: > 10000 nM
--
MOLECULE: O=c1c(S(=O)(=O)c2ccc(F)cc2)c[nH]c2cccnc12
TARGET_SYSTEM: NF-κB
IC50: > 10000 nM
--
MOLECULE: CCC1Oc2cc(S(=O)(=O)Nc3ccccc3)c(Cl)cc2NC1=O (stereo not shown)
TARGET_SYSTEM: NF-κB
IC50: 100 to 1000 nM
--
MOLECULE: CC1Oc2c(cc(Br)cc2S(=O)(=O)Nc2ccc(F)cc2Cl)NC1=O (stereo not shown)
TARGET_SYSTEM: NF-κB
IC50: < 100 nM
--
MOLECULE: CCC1Oc2c(cc(Cl)cc2S(=O)(=O)Nc2cccc(Cl)c2)NC1=O (stereo not shown)
TARGET_SYSTEM: NF-κB
IC50: < 100 nM
--
MOLECULE: O=C1COc2cc(S(=O)(=O)NCCc3ccc(OC(F)(F)F)cc3)c(Br)cc2N1
TARGET_SYSTEM: NF-κB
IC50: > 10000 nM

## Task Give IC50; test system NF-κB; molecule CCc1cccc(NS(=O)(=O)c2cc(Br)cc3c2OC(C)C(=O)N3)c1 (stereo not shown)
## Result < 100 nM

## Task Give IC50; test system NF-κB; molecule CS(=O)(=O)c1cc2c(c(S(=O)(=O)Nc3ccc(F)cc3F)c1)OCC(=O)N2
## Result < 100 nM

## Task Give IC50; test system NF-κB; molecule CC(C)CNS(=O)(=O)c1cc(Br)cc2c1OC(C)C(=O)N2 (stereo not shown)
## Result > 10000 nM

## Task Give IC50; test system NF-κB; molecule COc1ccc(NS(=O)(=O)c2cc(S(C)(=O)=O)cc3c2OCC(=O)N3)cc1Cl
## Result > 10000 nM

## Task Give IC50; test system NF-κB; molecule CC1Oc2cc(S(=O)(=O)NCc3ccc(OC(F)(F)F)cc3)c(Br)cc2NC1=O (stereo not shown)
## Result > 10000 nM

## Task Give IC50; test system NF-κB; molecule Cc1cc2c(cc1S(=O)(=O)Nc1ccccc1Br)OCC(=O)N2
## Result 100 to 1000 nM

## Task Give IC50; test system NF-κB; molecule O=C1COc2c(cc(Br)cc2S(=O)(=O)Nc2ccc(F)c(F)c2)N1
## Result < 100 nM

## Task Give IC50; test system NF-κB; molecule CCC1Oc2c(cc(Br)cc2S(=O)(=O)Nc2ccccc2)N(C)C1=O (stereo not shown)
## Result < 100 nM

The measured values listed here are drawn from patent US12606528B2.
